B1: PTPLAD1 (parent)
chain: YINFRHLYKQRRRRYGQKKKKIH

- Variants of: B1
- procedureText: protein stability index of a GFP-peptide fusion (GPS, HEK-293T) (PSI 1-6); higher = more stable;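 further: lentivirally expressed fusions sorted by FACS into six bins by GFP to DsRed ratio, PSI derived from sequencing read proportions per bin multiplied by bin number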
- assayConditions: c terminus: native
property: protein stability index
No unit in the answer, please; the number alone is enough.

Ask: Return reported protein stability index. Input variant: YINFRHLYKQRRRHYGQKKKKIH [R14H]
Reply: 1.96

Ask: Hello, please tell me recorded protein stability index for this one: YINFRHLPKQRRRRYGQKKKKIH [Y8P]
Reply: 2.81

Ask: Look up and state reported protein stability index for HINFRHLYKQRRRRYGQKKKKIH [Y1H]
Reply: 2.9

Ask: Quote protein stability index reported for YINFRPLYKQRRRRYGQKKKKIH [H6P] please.
Reply: 1.7

Ask: Output protein stability index of YINFRHLYKQRRRRYGQKDKKIH [K19D]
Reply: 2.66

Ask: Give recorded protein stability index. YINFRHLYKQRYRRYGQKKKKIH [R12Y]
Reply: 2.01

Ask: State its protein stability index for this variant: YSNFRHLYKQRRRRYGQKKKKIH [I2S]
Reply: 2.53

Ask: Answer with the recorded protein stability index of YINFRHLYKQRRRRYGKKKKKIH [Q17K] only.
Reply: 1.76

Ask: Tell me protein stability index reported for YINFRHLTKQRRRRYGQKKKKIH [Y8T]
Reply: 1.76

Ask: Give protein stability index for the following variant: YINFRHLYKQRRRRYGQPKKKIH [K18P]
Reply: 1.52

Ask: Query protein stability index for YINFRHLYKDRRRRYGQKKKKIH [Q10D]
Reply: 1.88

Ask: Note protein stability index for the variant shown: YINFRHNYKQRRRRYGQKKKKIH [L7N]
Reply: 2.72

Ask: Give the measured protein stability index for YIDFRHLYKQRRRRYGQKKKKIH [N3D]
Reply: 2.39

Ask: Look up and state reported protein stability index for YINFRHLYKQRRRRYGQGKKKIH [K18G]
Reply: 1.91

Ask: State its protein stability index: YIFFRHLYKQRRRRYGQKKKKIH [N3F]
Reply: 2.51

Ask: Give protein stability index for YINFRHLYKMRRRRYGQKKKKIH [Q10M]
Reply: 1.96

Ask: Identify protein stability index associated with the variant YINFRHLYKQRRRGYGQKKKKIH [R14G]
Reply: 2.47

Ask: State its protein stability index: YIHFRHLYKQRRRRYGQKKKKIH [N3H]
Reply: 2.52

Ask: Indicate the recorded protein stability index value for this variant: YINFRHLYKQRRRRYGQYKKKIH [K18Y]
Reply: 2.39

Ask: Check the records and state protein stability index for YINFRHLYKQRRRRYGQKKKCIH [K21C]
Reply: 2.5

Ask: Supply measured protein stability index of YINFRHLYKQPRRRYGQKKKKIH [R11P] in your reply.
Reply: 2.84

Ask: Name the recorded protein stability index of the item YINFRHLYKARRRRYGQKKKKIH [Q10A] in your answer.
Reply: 2.59

Ask: Let me know recorded protein stability index for YINFRHLYKQRRRPYGQKKKKIH [R14P] , thanks.
Reply: 2.05

Ask: Identify measured protein stability index associated with YINFRHLSKQRRRRYGQKKKKIH [Y8S]
Reply: 1.95

Ask: For the variant GINFRHLYKQRRRRYGQKKKKIH [Y1G] , give its measured protein stability index value.
Reply: 2.01

Ask: Recall and state the measured protein stability index for YINFRHLYKQRRRRYGQKKKKEH [I22E] .
Reply: 2.66

Ask: Specify protein stability index for YINKRHLYKQRRRRYGQKKKKIH [F4K] and stop.
Reply: 3.29

Ask: Give the reported value of protein stability index for this record: YINFRHLYKPRRRRYGQKKKKIH [Q10P]
Reply: 1.66

Ask: Please look at this variant and report its protein stability index: YINFRHLGKQRRRRYGQKKKKIH [Y8G]
Reply: 2.03

Ask: Retrieve protein stability index measured for YINFRHLYKQRRRRYGQKKKPIH [K21P] and print it.
Reply: 1.99

Ask: Give the reported protein stability index for this variant. YINFRHAYKQRRRRYGQKKKKIH [L7A]
Reply: 2.01

Ask: Read off the recorded protein stability index for YINFRHEYKQRRRRYGQKKKKIH [L7E]
Reply: 2.79

Ask: Return the recorded protein stability index value; entry: YINFRHLYKQHRRRYGQKKKKIH [R11H]
Reply: 2.15

Ask: # return recorded protein stability index for entry YINFRHLYKQRRRRYYQKKKKIH [G16Y]
Reply: 1.25

Ask: Identify measured protein stability index associated with YINFFHLYKQRRRRYGQKKKKIH [R5F]
Reply: 2.14

Ask: Using the record for YINFRHLYKQRRRRVGQKKKKIH [Y15V] , state its measured protein stability index.
Reply: 2.14

Ask: Determine from records and report protein stability index for YINFRHLYKQRRNRYGQKKKKIH [R13N]
Reply: 1.25

Ask: Assign protein stability index to the following record: YINFRHLYKQRRFRYGQKKKKIH [R13F]
Reply: 2.49

Ask: Return reported protein stability index. Input variant: YINFRALYKQRRRRYGQKKKKIH [H6A]
Reply: 1.81

Ask: Annotate the variant YINFRHLYKQRNRRYGQKKKKIH [R12N] with its measured protein stability index.
Reply: 2.05

Ask: For YINFRHLYKQRRRRYGQKKYKIH [K20Y] , write its protein stability index.
Reply: 3.24

Ask: Give me measured protein stability index, please, for this variant: YINFRHMYKQRRRRYGQKKKKIH [L7M]
Reply: 2.31

Ask: Determine its reported protein stability index: YINFRHLYKQRRRVYGQKKKKIH [R14V]
Reply: 2.14

Ask: Answer with reported protein stability index of YDNFRHLYKQRRRRYGQKKKKIH [I2D]
Reply: 3.45

Ask: Tell me its protein stability index given YINFRHLYKQRRGRYGQKKKKIH [R13G] as the entry.
Reply: 1.41

Ask: Give protein stability index for YINFRHLYKQRRRRYGQNKKKIH [K18N]
Reply: 1.96

Ask: Look up and state reported protein stability index for YINFRHLYKQRRRRYGQKKKKCH [I22C]
Reply: 1.86

Ask: Name the recorded protein stability index of the variant listed here: YINFRHLYKQRRRNYGQKKKKIH [R14N]
Reply: 2.15

Ask: Dear colleague, please send me the reported protein stability index for YINFRHLYGQRRRRYGQKKKKIH [K9G] when you can.
Reply: 1.95

Ask: Determine its reported protein stability index: YINFRHLYKQRRRRCGQKKKKIH [Y15C]
Reply: 2.22

Ask: Supply measured protein stability index of YINFRFLYKQRRRRYGQKKKKIH [H6F] in your reply.
Reply: 1.54

Ask: Indicate the recorded protein stability index value for this variant: YINFRHLYKQRRRRYGQSKKKIH [K18S]
Reply: 1.65

Ask: Assign protein stability index to the following record: YINFRHLYKQRRRRYGQIKKKIH [K18I]
Reply: 2.86

Ask: Input YINFRHLYKQRRRRYGQKKGKIH [K20G] , output reported protein stability index.
Reply: 2.77

Ask: Please list protein stability index recorded for the variant YINFRHLYKQRRRSYGQKKKKIH [R14S]
Reply: 1.85

Ask: Hello, please tell me recorded protein stability index for this one: YINFRHLYKQRRRRYGQMKKKIH [K18M]
Reply: 1.78

Ask: Supply recorded protein stability index for YINFRHLYKQRDRRYGQKKKKIH [R12D] here.
Reply: 2.24

Ask: Tell me protein stability index reported for YINLRHLYKQRRRRYGQKKKKIH [F4L]
Reply: 2.87

Ask: For YINFRHLYKQRRRRYGQKKKKGH [I22G] , write its protein stability index.
Reply: 1.5

Ask: Supply recorded protein stability index for YINFRHLYKQRRRRGGQKKKKIH [Y15G] here.
Reply: 2.14

Ask: Using the record for YINFRHLYKQRRRRYGQKWKKIH [K19W] , state its measured protein stability index.
Reply: 2.02

Ask: Input YINFRHLYKQRRRRYGAKKKKIH [Q17A] , output reported protein stability index.
Reply: 2.66

Ask: Return reported protein stability index. Input variant: YINFKHLYKQRRRRYGQKKKKIH [R5K]
Reply: 2.51

Ask: Give the reported value of protein stability index for this record: YINFRHLYKQRRTRYGQKKKKIH [R13T]
Reply: 1.75

Ask: // fetch protein stability index given entry YINFRHLYKQRRRRYGQKKKKIP [H23P]
Reply: 2.07

Ask: Indicate the recorded protein stability index value for this variant: YINFRHLYKQRVRRYGQKKKKIH [R12V]
Reply: 3.11

Ask: State its protein stability index: YINFRHGYKQRRRRYGQKKKKIH [L7G]
Reply: 2.68

Ask: // fetch protein stability index given entry YINFRHLYKQRRRRYGQKKKKIE [H23E]
Reply: 1.04

Ask: For the variant YINFRHLYKQRRRRYGQWKKKIH [K18W] , give its reported protein stability index.
Reply: 2.22

Ask: Supply measured protein stability index of YINFRHLYKQRRRRYGQKKKKTH [I22T] in your reply.
Reply: 2.1

Ask: Identify measured protein stability index associated with YINFRHLYKQRRREYGQKKKKIH [R14E]
Reply: 1.78

Ask: Note down protein stability index recorded for YINFRHLYKQRRRRYQQKKKKIH [G16Q]
Reply: 1.56

Ask: Return the recorded protein stability index value; entry: RINFRHLYKQRRRRYGQKKKKIH [Y1R]
Reply: 1.35

Ask: Name the recorded protein stability index of the item YINFRHLYKQRRRRYGQKKKKYH [I22Y] in your answer.
Reply: 2.08

Ask: Determine its reported protein stability index: VINFRHLYKQRRRRYGQKKKKIH [Y1V]
Reply: 2.1

Ask: Tell us which protein stability index value is on record for YINFRHLYKQRWRRYGQKKKKIH [R12W]
Reply: 2.15

Ask: Return value of protein stability index for input YINFRHLYKQRRRRLGQKKKKIH [Y15L] , no commentary.
Reply: 2

Ask: Name the recorded protein stability index of the item YINFRHLYKQRRRRYGQKKMKIH [K20M] in your answer.
Reply: 1.88

Ask: # return recorded protein stability index for input YINFRHLYKQRRRRYGQKKKKDH [I22D]
Reply: 2.56

Ask: Could you please provide reported protein stability index for YINFRHLYKQRRLRYGQKKKKIH [R13L] ? Thanks!
Reply: 2.3

Ask: Give protein stability index for YINFRHLYSQRRRRYGQKKKKIH [K9S]
Reply: 2.6

Ask: Annotate the variant YINFRHLYKQRRRRYGQKMKKIH [K19M] with its measured protein stability index.
Reply: 2.31

Ask: Find the measured protein stability index of YITFRHLYKQRRRRYGQKKKKIH [N3T] and report it.
Reply: 2.31

Ask: Give reported protein stability index value for YINFRHLYKVRRRRYGQKKKKIH [Q10V]
Reply: 1.47

Ask: Report protein stability index for YINFRHLYKQRRARYGQKKKKIH [R13A]
Reply: 1.7
